Assay: IFT between surfactant solutions and reservoir crude oil at ambient conditions (spinning drop)
Assay type: physicochemical
Settings: ~0.1 wt % in blank brine
Outcome label depends on γ (interfacial tension surfactant solution/reservoir oil) relative to 2 mN/m: at/above gives T, below gives F.

**Q:** Answer whether γ (interfacial tension surfactant solution/reservoir oil) of CCCCCCCCCCCC[N+](C)(C)C.[Br-] [DTAB, Dodecyltrimethylammonium bromide] is greater than or equal to 2 mN/m.
**A:** F

**Q:** Answer whether γ (interfacial tension surfactant solution/reservoir oil) of CCCCCCCCCCCCCCCC[N+](C)(C)C.[Cl-] [CTAC, Cetyltrimethyl ammonium chloride] is greater than or equal to 2 mN/m.
**A:** F

**Q:** Answer whether γ (interfacial tension surfactant solution/reservoir oil) of CCCCCCCC[N+](C)(C)C.[Cl-] [TOAC, Trimethyloctylammonium chloride] is greater than or equal to 2 mN/m.
**A:** T

**Q:** Answer whether γ (interfacial tension surfactant solution/reservoir oil) of CCCCCCCCCCCC[N+](C)(C)C.[Cl-] [DTAC, Dodecyltrimethylammonium chloride] is greater than or equal to 2 mN/m.
**A:** F

**Q:** Answer whether γ (interfacial tension surfactant solution/reservoir oil) of CCCCCCCCCCCCCCCCCC[N+](C)(C)C.[Br-] [TODAB, Trimethyloctadecylammonium bromide] is greater than or equal to 2 mN/m.
**A:** F

**Q:** Answer whether γ (interfacial tension surfactant solution/reservoir oil) of CCCCCCCC[N+](C)(C)C.[Br-] [TOAB, Trimethyloctylammonium bromide] is greater than or equal to 2 mN/m.
**A:** T

**Q:** Answer whether γ (interfacial tension surfactant solution/reservoir oil) of CCCCCCCCCCCCCCCC[N+](C)(C)C.[Br-] [CTAB, Hexadecyltrimethylammonium bromide] is greater than or equal to 2 mN/m.
**A:** F

* * *

Test: Microemulsion phase behavior of surfactant solution/crude oil
Assay type: physicochemical
Conditions: about 0.1 wt % in blank brine/crude oil 1:1; about 80° C. versus ambient
Reported Property: phase behavior (in words)

**Q:** Name the reported phase behavior (in words) value associated with the compound CCCCCCCCCCCCCCCCCC[N+](C)(C)C.[Cl-] [TSAC, Trimethyloctadecylammonium chloride]
**A:** poor solubility

**Q:** Name the reported phase behavior (in words) value associated with the compound CCCCCCCCCCCCCCCCCC[N+](C)(C)C.[Br-] [TODAB, Trimethyloctadecylammonium bromide]
**A:** poor solubility
